kinase still bound, per cent of control values for the compounds below.
system: EGFR (human), P00533 [T790M/L858R]; test: KINOMEscan competition binding; settings: compound 10.0 µM
Report only the number, with the unit % understood.

See these solved cases before continuing.
C=CC(=O)Nc1ccc(C(=O)c2sc(Nc3ccc(N4CCN(C)CC4)cc3OC)nc2N)cc1: 68
C=CC(=O)Nc1cc(NC(=O)c2ccc(C)c(NC(=O)c3ccno3)c2)cc(C(F)(F)F)c1: 97
CCN1CCN(C(=O)Cc2ccc(Nc3ncc(F)c(Nc4ccc(C(=O)Nc5ccccc5Cl)cc4)n3)cc2)CC1: 76
CCCS(=O)(=O)Nc1ccc(F)c(C(=O)c2c[nH]c3ncc(Cl)cc23)c1F: 90
Cn1c(=O)n(-c2ccc(C(C)(C)C#N)cc2)c2c3cc(-c4cnc5ccccc5c4)ccc3ncc21: 100
C=CC(=O)Nc1cccc(Nc2nc(N[C@H]3CC[C@H](N(C)C)CC3)nc3c2ncn3C(C)C)c1: 100
CCOc1cc(N2CCC(O)CC2)ccc1Nc1ncc2c(n1)N(C)c1ccccc1C(=O)N2C: 100
C=CC(=O)Nc1cc(-n2c(=O)ccc3cnc4ccc(-c5cn[nH]c5)cc4c32)ccc1C: 18

IN: Need kinase still bound, per cent of control, item "Nc1ccc(-c2ccc3ncc4ccc(=O)n(-c5cccc(C(F)(F)F)c5)c4c3c2)cn1"
OUT: 100

IN: kinase still bound, per cent of control for "OCCCNc1cc(-c2ccnc(Nc3cccc(Cl)c3)n2)ccn1" ?
OUT: 100

IN: Given the compound "CCC(=O)N1CCN(c2ccc(-n3c(=O)ccc4cnc5ccc(-c6cnc7ccccc7c6)cc5c43)cc2C(F)(F)F)CC1" , what is its reported kinase still bound, per cent of control?
OUT: 100

IN: Please look up its kinase still bound, per cent of control: "Cc1cc([C@@H](C)Nc2ccccc2C(=O)O)c2nc(N3CCOCC3)cc(=O)n2c1"
OUT: 99

IN: What does the record list as kinase still bound, per cent of control for "O=c1cc(N2CCOCC2)oc2c(-c3cccc4c3sc3ccccc34)cccc12" ?
OUT: 93

IN: Give its kinase still bound, per cent of control value. Item: "CCN1CCN(Cc2ccc(Nc3ncc4c(n3)N(C)c3ccccc3C(=O)N4C)cc2C(F)(F)F)CC1"
OUT: 90

IN: # get_value(readout='kinase still bound, per cent of control', item= "C[C@@H](Oc1cc(-n2cnc3ccc(CN4CCN(C)CC4)cc32)sc1C(N)=O)c1ccccc1C(F)(F)F" )
OUT: 78

IN: Quick one: kinase still bound, per cent of control for "CS(=O)(=O)N1CCN(Cc2cc3nc(-c4cccc5[nH]ncc45)nc(N4CCOCC4)c3s2)CC1" ?
OUT: 100

IN: # lookup: kinase still bound, per cent of control of "Cc1ccc2nc(NCCN)c3ncc(C)n3c2c1"
OUT: 100

IN: Need kinase still bound, per cent of control of "NC(=O)Nc1cc(-c2cccc(F)c2)sc1C(=O)N[C@@H]1CCCNC1" , thanks.
OUT: 5

----------
target: TGFBR1 (human) (UniProt P36897); assay: KINOMEscan competition binding; conditions: compound 10.0 µM
Sequence (P36897 whole entry, looked up): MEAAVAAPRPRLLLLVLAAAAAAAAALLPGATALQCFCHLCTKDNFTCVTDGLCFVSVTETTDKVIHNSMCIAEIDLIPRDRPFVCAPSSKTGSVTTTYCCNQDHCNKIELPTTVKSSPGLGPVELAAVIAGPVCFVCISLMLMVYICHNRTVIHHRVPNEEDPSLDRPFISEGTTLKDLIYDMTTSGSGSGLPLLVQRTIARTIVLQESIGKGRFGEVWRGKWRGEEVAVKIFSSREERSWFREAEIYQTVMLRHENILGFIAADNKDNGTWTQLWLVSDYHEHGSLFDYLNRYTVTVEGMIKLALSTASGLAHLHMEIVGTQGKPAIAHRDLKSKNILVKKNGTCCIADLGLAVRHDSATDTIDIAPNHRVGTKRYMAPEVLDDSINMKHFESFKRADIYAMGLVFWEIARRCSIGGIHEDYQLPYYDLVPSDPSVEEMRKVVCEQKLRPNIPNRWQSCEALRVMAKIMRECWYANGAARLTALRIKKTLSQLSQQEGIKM
Below is a list of entries, each paired with its recorded kinase still bound, per cent of control value.
Please reply with the bare figure in % and do not write the unit itself.

COc1cc2ncn(-c3cc(OCc4ccccc4C(F)(F)F)c(C(N)=O)s3)c2cc1OC: 86
COc1ccc(N(C(=O)Oc2c(C)cccc2C)c2ccnc(Nc3ccc(N4CCN(C)CC4)cc3)n2)c(OC)c1: 0.75
CCN1CCN(C(=O)Cc2ccc(Nc3ncc(F)c(Nc4ccc(C(=O)Nc5ccccc5Cl)cc4)n3)cc2)CC1: 57
O=c1cc(N2CCOCC2)oc2c(-c3cccc4c3sc3ccccc34)cccc12: 100

IN: Which kinase still bound, per cent of control reading was recorded for the compound "COc1cc2ncnc(-n3nc(-c4ccccn4)nc3N)c2cc1OC" ?
OUT: 14

IN: Field request: kinase still bound, per cent of control | item: "CCN(CC)CCCCNc1ncc2c(n1)N(C)C(=O)N(c1c(Cl)c(OC)cc(OC)c1Cl)C2"
OUT: 100

IN: # get_value(readout='kinase still bound, per cent of control', item= "COCC(=O)NC/C=C/c1ccc2ncnc(Nc3ccc(Oc4ccc(C)nc4)c(C)c3)c2c1" )
OUT: 100

IN: Consider the compound shown here: "CN(C)C/C=C/C(=O)Nc1ccc(C(=O)Nc2cccc(Nc3nccc(-c4cccnc4)n3)c2)cc1" What is its recorded kinase still bound, per cent of control?
OUT: 100

IN: Reported kinase still bound, per cent of control, compound "CNC(=O)c1ccc(Nc2cc(Nc3ccccc3S(=O)(=O)C(C)C)c3cc[nH]c3n2)nc1" : ____
OUT: 100

IN: What value of kinase still bound, per cent of control has been reported for the following compound? "NC(=O)Nc1cc(-c2cccc(F)c2)sc1C(=O)N[C@@H]1CCCNC1"
OUT: 47

IN: Need kinase still bound, per cent of control of "N#CCNC(=O)c1ccc(-c2ccnc(Nc3ccc(N4CCOCC4)cc3)n2)cc1" , thanks.
OUT: 76

IN: Can you share its kinase still bound, per cent of control? I mean this compound: "C[C@@H](Oc1cc(-c2cnn(C3CCNCC3)c2)cnc1N)c1c(Cl)ccc(F)c1Cl"
OUT: 4

IN: What does the record list as kinase still bound, per cent of control for "CNC(=O)c1cc(Oc2ccc(NC(=O)Nc3ccc(Cl)c(C(F)(F)F)c3)cc2)ccn1" ?
OUT: 100

IN: Value lookup for kinase still bound, per cent of control; key = "O=C(Nc1cccc(Nc2ncc(Br)c(NCCc3cnc[nH]3)n2)c1)N1CCCC1"
OUT: 77

----------
biological target: TYRO3 (human); test: KINOMEscan competition binding; settings: compound 10.0 µM
This section presents compounds with their documented kinase still bound, per cent of control values.

C=CC(=O)Nc1ccc(CN(C(=O)Nc2c(Cl)c(OC)cc(OC)c2Cl)c2cc(Nc3ccc(N4CCN(C)CC4)cc3)ncn2)cc1: 100%
COc1ccc(N(C(=O)Oc2c(C)cccc2C)c2ccnc(Nc3ccc(N4CCN(C)CC4)cc3)n2)c(OC)c1: 18%
O=c1cc(N2CCOCC2)oc2c(-c3cccc4c3sc3ccccc34)cccc12: 100%

Continue with the compound presented below.
IN: Please look up its kinase still bound, per cent of control: "COc1cc(N2CCN(C)CC2)ccc1Nc1ncc2c(n1)N(C)c1ccccc1C(=O)N2C"
OUT: 100%

----------
molecular target: FES (human) (UniProt P07332); assay: KINOMEscan competition binding; settings: compound 10.0 µM
Sequence (P07332 whole entry, looked up): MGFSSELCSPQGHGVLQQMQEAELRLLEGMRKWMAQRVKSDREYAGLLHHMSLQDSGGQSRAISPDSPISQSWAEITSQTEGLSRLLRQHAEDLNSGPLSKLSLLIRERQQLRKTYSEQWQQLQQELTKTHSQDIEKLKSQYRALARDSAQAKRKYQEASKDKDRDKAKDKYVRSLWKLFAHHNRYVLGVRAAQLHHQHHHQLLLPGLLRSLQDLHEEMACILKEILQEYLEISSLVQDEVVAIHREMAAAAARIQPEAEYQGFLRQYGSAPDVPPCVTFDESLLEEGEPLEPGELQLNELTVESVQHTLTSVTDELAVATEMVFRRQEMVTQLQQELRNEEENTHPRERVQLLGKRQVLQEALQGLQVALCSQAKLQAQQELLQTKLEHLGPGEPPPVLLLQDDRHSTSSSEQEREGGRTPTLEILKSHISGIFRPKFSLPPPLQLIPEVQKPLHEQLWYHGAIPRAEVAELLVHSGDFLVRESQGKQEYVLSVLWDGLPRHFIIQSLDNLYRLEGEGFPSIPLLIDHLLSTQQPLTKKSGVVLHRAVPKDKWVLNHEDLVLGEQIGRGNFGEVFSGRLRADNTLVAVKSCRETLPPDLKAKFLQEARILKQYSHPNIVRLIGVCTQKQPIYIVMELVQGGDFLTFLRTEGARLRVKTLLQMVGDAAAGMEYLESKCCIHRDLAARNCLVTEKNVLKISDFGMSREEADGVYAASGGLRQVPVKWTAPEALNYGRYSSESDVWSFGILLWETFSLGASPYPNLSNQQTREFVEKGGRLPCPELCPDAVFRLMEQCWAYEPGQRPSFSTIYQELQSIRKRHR
quantity-name: kinase still bound, per cent of control
Could you give the number and then its unit, please?

Before answering, review these 5 worked examples.
CS(=O)(=O)N1CCN(Cc2cc3nc(-c4cccc5[nH]ncc45)nc(N4CCOCC4)c3s2)CC1: 100%
COc1cc2ncnc(-n3nc(-c4ccccn4)nc3N)c2cc1OC: 99%
O=C1NC(=O)/C(=C/c2ccc3nccc(-c4ccncc4)c3c2)S1: 100%
N#CCNC(=O)c1ccc(-c2ccnc(Nc3ccc(N4CCOCC4)cc3)n2)cc1: 100%
COc1cc(N2CCN(C)CC2)ccc1Nc1ncc2c(n1)N(C)c1ccccc1C(=O)N2C: 100%

IN: Fill in the recorded kinase still bound, per cent of control for this compound, with FES (human) (UniProt P07332) as test system: "C=CC(=O)Nc1cc(-n2c(=O)ccc3cnc4ccc(-c5cn[nH]c5)cc4c32)ccc1C"
OUT: 100%

----------
target: YSK4 (human); experiment: KINOMEscan competition binding; details: compound 10.0 µM
Reported kinase still bound, per cent of control values for a set of molecules
# number only, unit % dropped from output

Some molecules with recorded kinase still bound, per cent of control:
COc1cc2ncnc(-n3nc(-c4ccccn4)nc3N)c2cc1OC: 0.45
CNC(=O)c1cc(Oc2ccc(NC(=O)Nc3ccc(Cl)c(C(F)(F)F)c3)cc2)ccn1: 0.4
O=C(Nc1cccc(Nc2ncc(Br)c(NCCc3cnc[nH]3)n2)c1)N1CCCC1: 0
C[C@@H](Oc1cc(-c2cnn(C3CCNCC3)c2)cnc1N)c1c(Cl)ccc(F)c1Cl: 2.4
NC(=O)Nc1cc(-c2cccc(F)c2)sc1C(=O)N[C@@H]1CCCNC1: 0

IN: Name the recorded kinase still bound, per cent of control for "CCN1CCN(C(=O)Cc2ccc(Nc3ncc(F)c(Nc4ccc(C(=O)Nc5ccccc5Cl)cc4)n3)cc2)CC1" .
OUT: 7.2

IN: Look up kinase still bound, per cent of control: "N#CCNC(=O)c1ccc(-c2ccnc(Nc3ccc(N4CCOCC4)cc3)n2)cc1"
OUT: 1.7

IN: For the molecule shown here, "O=C1NC(=O)/C(=C/c2ccc3nccc(-c4ccncc4)c3c2)S1" , give the reported kinase still bound, per cent of control.
OUT: 0.05

----------
This section presents molecules with their documented kinase still bound, per cent of control values.
molecular target: SIK1 (human) (UniProt P57059); assay: KINOMEscan competition binding; conditions: compound 10.0 µM
Sequence (P57059 whole entry, looked up): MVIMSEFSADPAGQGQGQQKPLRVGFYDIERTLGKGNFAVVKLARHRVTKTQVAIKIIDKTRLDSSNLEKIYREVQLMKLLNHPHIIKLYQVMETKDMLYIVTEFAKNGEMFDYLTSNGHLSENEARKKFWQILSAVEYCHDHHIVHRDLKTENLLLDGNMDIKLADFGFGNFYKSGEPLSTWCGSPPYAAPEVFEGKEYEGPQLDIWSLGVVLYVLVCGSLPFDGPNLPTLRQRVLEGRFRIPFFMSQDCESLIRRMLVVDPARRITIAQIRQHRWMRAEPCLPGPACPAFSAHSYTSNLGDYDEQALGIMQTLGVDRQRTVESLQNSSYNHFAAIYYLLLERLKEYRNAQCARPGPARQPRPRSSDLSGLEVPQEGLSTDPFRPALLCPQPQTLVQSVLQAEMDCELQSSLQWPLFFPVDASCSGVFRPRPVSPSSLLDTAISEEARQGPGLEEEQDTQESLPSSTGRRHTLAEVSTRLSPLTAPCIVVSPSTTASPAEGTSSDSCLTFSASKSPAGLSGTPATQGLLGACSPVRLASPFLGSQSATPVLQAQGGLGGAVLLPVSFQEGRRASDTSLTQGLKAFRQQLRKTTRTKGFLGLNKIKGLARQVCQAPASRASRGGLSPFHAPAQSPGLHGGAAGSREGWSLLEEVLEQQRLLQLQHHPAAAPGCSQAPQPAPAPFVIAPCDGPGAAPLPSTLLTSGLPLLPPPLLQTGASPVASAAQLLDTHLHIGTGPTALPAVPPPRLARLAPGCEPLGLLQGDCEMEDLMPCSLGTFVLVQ

Please review the entries below; each comes with its answer.
COc1ccc(N(C(=O)Oc2c(C)cccc2C)c2ccnc(Nc3ccc(N4CCN(C)CC4)cc3)n2)c(OC)c1: 0.3%
C=CC(=O)Nc1ccc(CN(C(=O)Nc2c(Cl)c(OC)cc(OC)c2Cl)c2cc(Nc3ccc(N4CCN(C)CC4)cc3)ncn2)cc1: 31%
CCN(CC)CCCCNc1ncc2cc(-c3cc(OC)cc(OC)c3)c(NC(=O)NC(C)(C)C)nc2n1: 100%
COc1cc2ncnc(-n3nc(-c4ccccn4)nc3N)c2cc1OC: 45%

IN: Form entry - test system: SIK1 (human) (UniProt P57059); read-out: kinase still bound, per cent of control; molecule: "COCC(=O)NC/C=C/c1ccc2ncnc(Nc3ccc(Oc4ccc(C)nc4)c(C)c3)c2c1"
OUT: 100%
